Values were extracted from the array DNA melting data of Ke et al. (doi:10.1101/2024.01.08.574731).

// reported Tm per item
METHOD_NOTES: melting temperature; fluorescence melt of hairpins on a sequencing array, two-state fit, raised by 9.35 °C to match UV melts
MEASUREMENT_CONDITIONS: sodium 0.088 M
Reply with a number, then the unit it belongs to.

Here is how some sequences turned out for Tm.
In [3]: df
Out[3]:
                        primary_sequence  assay_result
0  GCTCATGGAAACATGAGC (((((((....)))))))       67.6 °C
1  GCCGCGCGAAAGCGTTGC ((..(((....)))..))       44.1 °C
2  GCCTCAGGAAACTGGGGC (((.(((....))).)))         56 °C
3  GTATGGGGAAACCCATAC (((((((....)))))))         59 °C
4  GTGCACGAAAGTGAGCAC ((((((....)))..)))       51.6 °C
5      GATCAGGGCACTGATC ((((((....))))))       59.8 °C
6  GAATACGGAAACGCATTC ((((.((....)).))))       36.8 °C
7      GATCTTGAGAAAGATC ((((((....))))))       45.9 °C
8      GATCAGTACGCTGATC ((((((....))))))       53.8 °C
9  GCGGTTGGAAACGACTGC ((.((.(....).)).))       37.8 °C

stdin: Suppose we examine the sequence GATCTCAGGAGAGATC ((((((....)))))) ; what Tm value has been reported?
stdout: 50.8 °C

stdin: Suppose we examine the sequence GGTGGATCGAAAGATACC (((..(((....)))))) ; what Tm value has been reported?
stdout: 35.6 °C

stdin: Suppose we examine the sequence GCGGATACGAAAGTACGC (((..(((....)))))) ; what Tm value has been reported?
stdout: 49.4 °C

stdin: Suppose we examine the sequence GATCCGAGATCGGATC ((((((....)))))) ; what Tm value has been reported?
stdout: 56.4 °C

stdin: Suppose we examine the sequence GCCGAATCGAAAGATGGC (((..(((....)))))) ; what Tm value has been reported?
stdout: 46.2 °C

----------
// reported folding enthalpy per item
METHOD_NOTES: folding enthalpy; higher = less favourable; fluorescence melt of hairpins on a sequencing array, two-state fit
MEASUREMENT_CONDITIONS: sodium 0.088 M
Your answer is read as kcal/mol, so omit the unit and give the number.

Here is how some sequences turned out for folding enthalpy.
In [3]: df
Out[3]:
                        primary_sequence            metric  unit_name  assay_result
0  GGCCCAGGAAACTAGGCC ((((.((....)).))))  folding enthalpy   kcal/mol         -30.3
1        GATCAGTCGCTGATC ((((((...))))))  folding enthalpy   kcal/mol         -29.6

Query sequence follows.
stdin: Suppose we examine the sequence GAACCCGAAAGGGACTTC ((((((....)))..))) ; what folding enthalpy value has been reported?
stdout: -20.2

----------
// reported Tm per item
METHOD_NOTES: melting temperature; fluorescence melt of hairpins on a sequencing array, two-state fit, raised by 9.35 °C to match UV melts
MEASUREMENT_CONDITIONS: sodium 0.088 M
Your answer is read as °C, so omit the unit and give the number.

Here is how some sequences turned out for Tm.
                        primary_sequence  assay_result
0        GATCTGGCTCAGATC ((((((...))))))          49.1
1      GATCAAGCATTTGATC ((((((....))))))            51
2  GCGATGGGAAACCACCGC (((.(((....))).)))          51.1

Query sequence follows.
stdin: Suppose we examine the sequence GTGTACGGAAACGCACAC ((((.((....)).)))) ; what Tm value has been reported?
stdout: 49.1

----------
METHOD_NOTES: melting temperature; fluorescence melt of hairpins on a sequencing array, two-state fit, raised by 9.35 °C to match UV melts
MEASUREMENT_CONDITIONS: sodium 0.088 M
// reported Tm per item
Your answer is read as °C, so omit the unit and give the number.

Here is how some sequences turned out for Tm.
                        primary_sequence  assay_result
0    GGGAATCGAAAGATCCC (((.(((....))))))          49.7
1  CGGGCGGAAACGCTTCCG ((((((....)))..)))            41
2      GGATAGGAAACTATCC ((((((....))))))          51.4
3      GATCATACCTATGATC ((((((....))))))          48.6
4  GGACTGCGAAAGCATTCC (((.(((....))).)))          48.5
5    GTACACGAAAGTGATAC ((((((....))).)))          40.1
6  GGGACAGGAAACTGTCTC (.(((((....))))).)          51.1

Query sequence follows.
stdin: Suppose we examine the sequence GATCCATCTCTGGATC ((((((....)))))) ; what Tm value has been reported?
stdout: 50.4

----------
METHOD_NOTES: folding enthalpy; higher = less favourable; fluorescence melt of hairpins on a sequencing array, two-state fit
MEASUREMENT_CONDITIONS: sodium 0.088 M
METRIC: folding enthalpy
Reply with a number, then the unit it belongs to.

Here is how some sequences turned out for folding enthalpy.
>>> print(df.to_string())
                        primary_sequence    assay_result
0              GCGGCGTACCGC ((((....))))  -17.2 kcal/mol
1  GCGCAAGGAAACCTGCGC (((((.(....).)))))  -41.7 kcal/mol

stdin: Suppose we examine the sequence GTTGGCGAAAGCCCAAC ((((((....))).))) ; what folding enthalpy value has been reported?
stdout: -16.3 kcal/mol

stdin: Suppose we examine the sequence GGGTATGGAAACATGCCC (((.(((....))).))) ; what folding enthalpy value has been reported?
stdout: -50.4 kcal/mol

stdin: Suppose we examine the sequence GGCGAACGAAAGTTTGCC (((.(((....))).))) ; what folding enthalpy value has been reported?
stdout: -37 kcal/mol

stdin: Suppose we examine the sequence GAAGGCCGAAAGGCTTTC (((.(((....))).))) ; what folding enthalpy value has been reported?
stdout: -20.6 kcal/mol

stdin: Suppose we examine the sequence GTTATCGAAAGATAAC ((((((....)))))) ; what folding enthalpy value has been reported?
stdout: -42.8 kcal/mol

----------
METHOD_NOTES: folding enthalpy; higher = less favourable; fluorescence melt of hairpins on a sequencing array, two-state fit
MEASUREMENT_CONDITIONS: sodium 0.088 M
Classify by measured folding enthalpy: True if it is equal to or exceeds -20 kcal/mol, False if it is smaller.

Illustrative cases are given below, each with its answer.
                        primary_sequence  assigned_category
0      GATCCGGATACGGATC ((((((....))))))              False
1  GCGACTTCGAAAGAACGC (((..(((....))))))              False
2      GATCTTCCGTAAGATC ((((((....))))))              False
3  GGGACAGGAAACTGTTCC ((.((((....)))).))              False
4  GCAGAGCGAAAGCTTCGC ((..(((....)))..))               True

stdin: Textbook exercise: given the entry GGCCGCGAAAGCGAAGCC ((((((....)))..))) , state whether its folding enthalpy is greater than or equal to -20 kcal/mol.
stdout: False

----------
METHOD_NOTES: folding enthalpy; higher = less favourable; fluorescence melt of hairpins on a sequencing array, two-state fit
MEASUREMENT_CONDITIONS: sodium 0.088 M
METRIC: folding enthalpy (kcal/mol)
Your answer is read as kcal/mol, so omit the unit and give the number.

>>> print(df.to_string())
                        primary_sequence  assay_result
0      GATCGGTTCGCCGATC ((((((....))))))           -45
1  GCCTCAGGAAACTGGGGC (((.(((....))).)))         -41.9

stdin: Suppose we examine the sequence GATCTATCTGTAGATC ((((((....)))))) ; what folding enthalpy value has been reported?
stdout: -33.9

stdin: Suppose we examine the sequence GAGTCAGGAAACTGACTC (((((((....))))))) ; what folding enthalpy value has been reported?
stdout: -37

stdin: Suppose we examine the sequence GCCGGGCGAAAGCCTTGC ((..(((....)))..)) ; what folding enthalpy value has been reported?
stdout: -12.4

stdin: Suppose we examine the sequence GCAGGTCGAAAGACGTGC (((.(((....))).))) ; what folding enthalpy value has been reported?
stdout: -42.9

stdin: Suppose we examine the sequence GATCGACAGTCGATC ((((((...)))))) ; what folding enthalpy value has been reported?
stdout: -40.4

stdin: Suppose we examine the sequence GCGCGCGAAAGCGCTCGC ((((((....)))..))) ; what folding enthalpy value has been reported?
stdout: -10.5
